- Tested on: OVCAR-5 ovarian
- measurement notes: NCI tumour cell line growth inhibition, 48 h; in the data active = GI50 below about 0.43 µM; inactive = the rest
Pick one: active, inactive

compound=COc1ccc(/C=C\c2cc(OC)c(OC)c(OC)c2)cc1NC(=O)[C@@H](N)CO class_name=active
compound="CC1/C=C/C=C/CC/C=C/C=C/C=C/C=C/C(OC2OC(C)C(O)C(N)C2O)CC2OC(CC(O)C(O)CCC(O)CC(O)CC(O)CC(=O)OC(C)C(C)C1O)CC(O)C2C(=O)O (stereo unspecified)" class_name=inactive
compound=O=C(Nc1ncc([N+](=O)[O-])s1)c1cccc([N+](=O)[O-])c1 class_name=inactive
compound=COc1ccc2c(CN3CCC(CO)CC3)cc3cc4c(cc3c2c1)OCO4 class_name=active
compound=C=C1C(=O)O[C@H]2[C@H]1CC/C(COC(=O)/C=C/c1cccnc1)=C\CC[C@@]1(C)O[C@@H]21 class_name=inactive
compound=N.N.NCCCCN.O=C([O-])CC(=O)[O-].O=C([O-])CC(=O)[O-].[Pt+4].[Pt+4] class_name=inactive
compound=Cc1c(C(=O)N/N=C/c2ccc(O)cc2)nnn1-c1ccnc2c(C(F)(F)F)cccc12 class_name=inactive
compound=COc1c(O)cc2oc3cc(O)c(CC=C(C)C)c(O)c3c(=O)c2c1C/C=C(\C)CCC=C(C)C class_name=inactive

Ask: Can you look up the reported call for COc1cccc2c(Nc3ccc(C(=O)NCCNCCO)cc3)cc(-c3ccccc3)nc12 for me?
Result: inactive

Ask: Can you look up the reported call for CCNCCNc1cc(-c2ccc(Cl)cc2)c(C#N)c2nc3ccccc3n12 for me?
Result: inactive

Ask: Can you look up the reported call for O=C(CCl)Nc1ccccc1SCc1cc(Cl)cc2c1OCOC2 for me?
Result: inactive

###

Would you mind telling me the reported TGI of each entry?
- Tested on: UACC-62 melanoma
- measurement notes: NCI tumour cell line growth inhibition, 48 h

Here is how some molecules turned out for TGI.
molecule=COC(=O)/N=[N+](\[O-])C(c1ccc(Cl)cc1)c1ccc(Cl)cc1 measurement_kind=TGI result="> 100 µM"
molecule="OC12c3ccccc3C1CCCCCCCCCC21OCCCO1 (stereo not drawn)" measurement_kind=TGI result="> 100 µM"
molecule=COc1cc(-c2cc(C(=O)Nc3nc4ccccc4s3)nc3cc(-c4ccccc4)nn23)cc(OC)c1OC measurement_kind=TGI result="80.4 µM"
molecule="CC(C)C(=O)CC(Sc1ccc(N)cc1)c1ccccc1 (stereo not drawn)" measurement_kind=TGI result="72.1 µM"
molecule="C=C1C(=O)OC2C1C(OC(=O)/C(C)=C/C)CC(O)(CCl)C1C(OC(C)=O)C=C(C)C21O (stereo not drawn)" measurement_kind=TGI result="29.3 µM"
molecule=CN(C)c1ccc(/C=C(\NC(=O)c2ccccc2)c2nc3ccccc3c(=O)o2)cc1 measurement_kind=TGI result="> 100 µM"
molecule=CSC1=C(C)S/C(=C\c2ccc(/C=C3\SC(C)=C(SC)S3)cc2)S1 measurement_kind=TGI result="> 100 µM"

Ask: Name the recorded TGI of the molecule listed here: O=S(=O)(O)c1ccc(N=Nc2c(O)ccc3ccccc23)cc1
Result: > 100 µM

###

- Test system: SK-MEL-2 melanoma
- measurement notes: NCI tumour cell line growth inhibition, 48 h
Would you mind telling me the reported TGI of each entry?

Here is how some compounds turned out for TGI.
compound=CCOC(=O)NC(OCCN(C)C)(C(F)(F)F)C(F)(F)F measurement_kind=TGI result="> 100 µM"
compound="COC(=O)C1=C(O)C(C(=O)OC)[C@]2(O)[C@H](C(=O)OC)[C@H]1C[C@@H](c1ccc(Cl)cc1Cl)[C@H]2C(=O)OC (stereo partly drawn)" measurement_kind=TGI result="20.3 µM"
compound=N#Cc1c(-c2cccc(Br)c2)cc(-c2ccc(Cl)cc2)nc1N measurement_kind=TGI result="31.5 µM"
compound=O=S(=O)(O)c1cccc2ccc(O)c(N=Nc3ccc(S(=O)(=O)c4ccc(N=Nc5c(O)ccc6cccc(S(=O)(=O)O)c56)cc4)cc3)c12 measurement_kind=TGI result="> 100 µM"
compound=O=C(Nc1cccc(NS(=O)(=O)c2ccc(F)cc2)c1)c1ccc(-c2ccccc2)cc1 measurement_kind=TGI result="7.88 µM"

// for each compound in input: emit TGI
1. Cc1ccc(C)c(NC(=O)CC2C(=O)Nc3ccccc3S2(=O)=O)c1 (stereo not drawn)
2. CC(C)(C)c1ccc(Oc2ccc(C#N)c(C#N)c2)c(C(C)(C)C)c1
3. COc1c(O)cc2oc3cc(O)c(CC=C(C)C)c(O)c3c(=O)c2c1C/C=C(\C)CCC=C(C)C

Result:
["> 100 µM", "97.8 µM", "12.1 µM"]
